This collection of values is drawn from patent US20140005165A1.

Target: human CCR2 (Homo sapiens, UniProt P41597)
Construct: expressed in transfected cells; host or cells: Ba/F3 cells (membrane preparation)
Sequence (P41597 whole entry): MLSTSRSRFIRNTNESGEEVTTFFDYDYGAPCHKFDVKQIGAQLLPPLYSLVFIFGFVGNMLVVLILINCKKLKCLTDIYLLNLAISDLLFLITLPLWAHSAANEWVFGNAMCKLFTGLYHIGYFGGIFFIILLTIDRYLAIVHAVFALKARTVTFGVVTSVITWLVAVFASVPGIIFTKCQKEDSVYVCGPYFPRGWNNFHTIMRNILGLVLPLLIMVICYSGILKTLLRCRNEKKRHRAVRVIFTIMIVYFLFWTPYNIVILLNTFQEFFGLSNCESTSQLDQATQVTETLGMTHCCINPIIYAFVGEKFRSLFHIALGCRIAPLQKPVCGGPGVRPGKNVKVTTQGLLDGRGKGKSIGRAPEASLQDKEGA
Experiment: CCR2 Membrane Binding Assay (SPA radio-ligand binding, 125I-rhMCP-1)
Details: membranes from Ba/F3 cells transfected with human CCR2; 0.03 nM 125I-rhMCP-1; class symbols
pIC50: −log10 of the molar value.
Reported Property: pIC50

Below are worked cases with known answers.
- Compound: "O=C([C@H]1[C@@H]2CN([C@H]3CC[C@@H](c4ccccc4)CC3)C[C@@H]21)N1CC(c2cccc(C(F)(F)F)c2)C1 [Compound 59]"
  pIC50: "6.15 to 6.70"
- Compound: "Cn1ccnc1C1CCC(N2C[C@@H]3[C@H](C2)[C@H]3C(=O)NCC(=O)Nc2cccc(C(F)(F)F)c2)CC1 (stereo partly drawn) [Compound 95]"
  pIC50: "6.70 to 7.29"
- Compound: "COc1ccc(CC2CCCC(N3C[C@@H]4[C@H](C3)[C@H]4C(=O)NCC(=O)Nc3cccc(C(F)(F)F)c3)C2)cc1 (stereo partly drawn) [Compound 146]"
  pIC50: "6.15 to 6.70"
- Compound: "Cn1ncc2cc([C@H]3CC[C@H](N4C[C@@H]5[C@H](C4)[C@H]5C(=O)NCC(=O)Nc4cccc(C(F)(F)F)c4)CC3)ccc21 [Compound 151]"
  pIC50: "6.70 to 7.29"
- Compound: "O=C(NCCc1cccc(C(F)(F)F)c1)C1[C@H]2CN(C3CCCCC3)C[C@@H]12 (stereo partly drawn) [Compound 1]"
  pIC50: "6.70 to 7.29"
- Compound: "COC(=O)[C@H]1CC[C@H](N2C[C@@H]3[C@H](C2)[C@H]3C(=O)NCC(=O)Nc2cccc(C(F)(F)F)c2)CC1 [Compound 58]"
  pIC50: "6.15 to 6.70"
- Compound: "O=C(CNC(=O)[C@H]1[C@@H]2CN([C@H]3CC[C@H](NC(=O)OCc4ccccc4)CC3)C[C@@H]21)Nc1cccc(C(F)(F)F)c1 [Compound 155]"
  pIC50: "6.15 to 6.70"
- Compound: "O=C(CNC(=O)[C@H]1[C@@H]2CN(C3CCC(O)(c4nccs4)CC3)C[C@@H]21)Nc1cccc(C(F)(F)F)c1 (stereo partly drawn) [Compound 122]"
  pIC50: "6.70 to 7.29"

// next entry
Please report the measured pIC50 for O=C(CNC(=O)[C@H]1[C@@H]2CN([C@H]3CC[C@@H](NC(=O)c4ccccc4)CC3)C[C@@H]21)Nc1cccc(C(F)(F)F)c1 [Compound 141]
> 7.30
